assay-text: in vivo
condition-context: mouse, iv, harmonic mean half-life, β phase
measure-name: half-life (h)
Your answer is read as h, so omit the unit and give the number.

Suppose we examine the compound CN1CC[C@H](c2c(O)cc(O)c3c(=O)cc(-c4ccccc4Cl)oc23)[C@H](O)C1 (relative stereo) [flavopiridol] ; what half-life value has been reported?
3.35

* * *

assay-text: in vivo
condition-context: dog, iv, harmonic mean half-life, α phase
measure-name: half-life
Answer with the figure and its unit, nothing else.

Suppose we examine the compound CN1CC[C@H](c2c(O)cc(O)c3c(=O)cc(-c4ccccc4Cl)oc23)[C@H](O)C1 (relative stereo) [flavopiridol] ; what half-life value has been reported?
23.4 min
